Reference for the values: patent US6949536B2

Structures can show the parent of a compound that is named as a salt.
Assay Endpoint: melting point

Query: GET /values?readout=melting point&item= NS(=O)(=O)c1ccc(-n2nc(C(F)(F)F)cc2-c2ccc(-c3ccco3)cc2)c(F)c1 (as salt: hydrochloride) [Example 141]
Reply: 174.4 °C

Query: GET /values?readout=melting point&item= COc1cc(-c2cc(C(F)(F)F)nn2-c2ccc(S(C)(=O)=O)cc2)ccc1-c1cscn1 (as salt: hydrochloride) [Example 120]
Reply: 164 to 166 °C

Query: GET /values?readout=melting point&item= Cc1onc(-c2ccc(-c3cscn3)cc2)c1-c1ccc(S(N)(=O)=O)c(F)c1 [Example 172]
Reply: 216 °C

Query: GET /values?readout=melting point&item= CS(=O)(=O)c1ccc(-n2nc(C(F)(F)F)cc2-c2ccc(-c3ccoc3)cc2)cc1 [Example 20]
Reply: 165 to 166 °C

Query: GET /values?readout=melting point&item= Cc1cc(-c2ccc(-c3ccoc3)cc2)n(-c2ccc(S(C)(=O)=O)cc2)c1 [Example 56]
Reply: 193 to 195 °C

Query: GET /values?readout=melting point&item= CS(=O)(=O)c1ccc(C2=C(c3ccc(-c4ccsc4)cc3)C(=O)OC2)cc1 [Example 32]
Reply: 220 to 222 °C

Query: GET /values?readout=melting point&item= CCOC(=O)c1cc(-c2ccc(-c3ccco3)cc2)n(-c2ccc(S(C)(=O)=O)cc2)n1 [Example 65]
Reply: 180.9 to 181.1 °C

Query: GET /values?readout=melting point&item= Cc1onc(-c2ccc(S(C)(=O)=O)cc2)c1-c1ccc(-c2cscn2)cc1 [Example 189]
Reply: 159 °C

Query: GET /values?readout=melting point&item= Cc1nc(-c2ccc(-c3cscn3)cc2)c(-c2ccc(S(C)(=O)=O)c(F)c2)o1 [Example 169]
Reply: 196 to 197 °C

Query: GET /values?readout=melting point&item= CS(=O)(=O)c1ccc(-n2nc(C(F)(F)F)cc2-c2ccc(-c3cscn3)c(F)c2)cc1F [Example 105]
Reply: 156 to 158 °C

Query: GET /values?readout=melting point&item= NS(=O)(=O)c1ccc(-n2nc(C(F)(F)F)cc2-c2ccc(-c3cscn3)c(Cl)c2)cc1F (as salt: hydrochloride) [Example 122]
Reply: 173 to 175 °C

Query: GET /values?readout=melting point&item= Cc1cc(-c2cc(C(F)(F)F)nn2-c2ccc(S(N)(=O)=O)c(F)c2)ccc1-c1cscn1 (as salt: hydrochloride) [Example 113]
Reply: 125 to 127 °C

Query: GET /values?readout=melting point&item= Cc1cc(-c2cc(C(F)(F)F)nn2-c2ccc(S(C)(=O)=O)cc2)ccc1-c1cocn1 (as salt: hydrochloride) [Example 112]
Reply: 148 to 150 °C

Query: GET /values?readout=melting point&item= CONC(=O)c1cc(-c2ccc(-c3ccco3)cc2)n(-c2ccc(S(C)(=O)=O)c(F)c2)n1 (as salt: hydrochloride) [Example 134]
Reply: 126 to 128 °C

Query: GET /values?readout=melting point&item= Cc1cn(-c2ccc(S(N)(=O)=O)c(F)c2)c(-c2ccc(-c3cscn3)cc2)n1 [Example 179]
Reply: 145 to 147 °C

Query: GET /values?readout=melting point&item= CS(=O)(=O)c1ccc(-n2nc(C(F)(F)F)cc2-c2ccc(-c3cscn3)cc2)cc1F [Example 99]
Reply: 125 to 127 °C

Query: GET /values?readout=melting point&item= NS(=O)(=O)c1ccc(-n2nc(C(F)(F)F)cc2-c2ccc(-c3cscn3)c(F)c2)cc1F (as salt: hydrochloride) [Example 114]
Reply: 196 to 198 °C

Query: GET /values?readout=melting point&item= NS(=O)(=O)c1ccc(-n2nc(C(F)(F)F)cc2-c2ccc(-c3ncco3)cc2)cc1 (as salt: hydrochloride) [Example 98]
Reply: 215 to 217 °C

Query: GET /values?readout=melting point&item= Cc1onc(-c2ccc(-c3cscn3)cc2)c1-c1ccc(S(N)(=O)=O)cc1 [Example 171]
Reply: 112 to 115 °C

Query: GET /values?readout=melting point&item= Cc1cc(-c2ccco2)ccc1-c1cc(C(F)(F)F)nn1-c1ccc(S(C)(=O)=O)cc1 (as salt: hydrochloride) [Example 78]
Reply: 175 to 177 °C

Query: GET /values?readout=melting point&item= CS(=O)(=O)c1ccc(-n2nc(C(F)(F)F)cc2-c2ccc(-c3ccsc3)cc2)cc1F [Example 87]
Reply: 72 to 74 °C

Query: GET /values?readout=melting point&item= COC(=O)c1cc(-c2ccc(-c3nccs3)cc2)n(-c2ccc(S(N)(=O)=O)cc2)n1 [Example 88]
Reply: 204 to 206 °C

Query: GET /values?readout=melting point&item= Cc1cc(-c2nc(C(F)(F)F)cn2-c2ccc(S(C)(=O)=O)c(F)c2)ccc1-c1cscn1 [Example 178]
Reply: 197 to 198 °C

Query: GET /values?readout=melting point&item= CS(=O)(=O)c1ccc(-n2nc(C(F)(F)F)cc2-c2ccc(-c3nccs3)cc2)cc1 [Example 22]
Reply: 206 to 207 °C

Query: GET /values?readout=melting point&item= Cc1cc(-c2cscn2)ccc1-c1cc(C(F)(F)F)nn1-c1ccc(S(C)(=O)=O)c(F)c1 (as salt: methanesulfonate) [Example 187]
Reply: 131.9 °C

Query: GET /values?readout=melting point&item= Cc1cc(-n2c(C)ccc2-c2ccc(S(C)(=O)=O)cc2)ccc1-c1ccoc1 [Example 39]
Reply: 69 to 75 °C

Query: GET /values?readout=melting point&item= Cc1cc(-c2cc(C(F)(F)F)nn2-c2ccc(S(N)(=O)=O)c(F)c2)ccc1-c1ccco1 [Example 139]
Reply: 78 to 80 °C

Query: GET /values?readout=melting point&item= Cc1cc(-n2nc(C(F)(F)F)cc2-c2ccc(-c3cscn3)cc2)ccc1S(C)(=O)=O (as salt: hydrochloride) [Example 101]
Reply: 147 to 149 °C

Query: GET /values?readout=melting point&item= Cc1cc(-c2noc(C)c2-c2ccc(S(C)(=O)=O)c(F)c2)ccc1-c1cscn1 [Example 170]
Reply: 99.5 °C
